Target: N-terminal GST tagged full length human TTK kinase (Homo sapiens, UniProt P33981)
Construct: N-terminal GST tagged full length human TTK kinase; GST (N); made in house; host or cells: insect cells
Assay: In Vitro TTK Kinase Assay 2 (Caliper LabChip LC3000)
Assay type: biochemical
Settings: recombinant TTK, 12 μM ATP, read-out: EAA2: Enzyme Assay Activity (In Vitro TTK kinase assay 2)
Experimental: Each reaction was stopped by the addition of EDTA to a concentration of 40 mM in a solution which also comprised 0.1% coating reagent (Caliper LS), 100 mM HEPES pH 7.5, 0.015% v/v Brij™-35 and 5% DMSO. The stopped enzyme reactions were sipped through capillaries onto a Caliper chip where the peptide substrate and phosphorylated product were separated and detected via laser-induced fluorescence.
Reported Property: IC50 (nM)

I = CN1C2CCCC1CC(NC(=O)c1ccc(Nc3ncc4c(n3)n(C3CCCC3)c(=O)n4C)c(F)c1)C2 (centres unmarked) [Example 16]
II = COc1cc(OC2CCN(C)C2)ccc1Nc1ncc2c(n1)n(C(C)C)c(=O)n2C (centres unmarked) [Example 43]
Exercise: Would you kindly point out which of I and II has the smaller IC50 figure? Record your answer as the label of the chosen record.
Key: II
(II: 115 nM, I: 313 nM)

P = COc1cc(C(=O)N(C)CC2CCN(C(C)C)C2)ccc1Nc1ncc2c(n1)n(C1CCCC1)c(=O)n2C (centres unmarked) [Example 53]
Q = COc1cc(C(=O)N2CCN(C)CC2)ccc1Nc1ncc2c(n1)n(C1CCCC1)c(=O)n2C [Example 50]
R = COc1cc(N2CCN(C)CC2)ccc1Nc1ncc2c(n1)n(C1CCCC1)c(=O)n2C [Example 4]
S = Cn1c(=O)n(C2CCCC2)c2nc(Nc3ccc(C(=O)c4ccccc4)cc3)ncc21 [Example 71]
T = Cn1c(=O)n(C2CCCC2)c2nc(Nc3ccc(S(C)(=O)=O)cc3F)ncc21 [Example 3]
Exercise: Sort low-to-high on IC50, please. Answer by naming the labels in the order asked.
Key: R, Q, T, P, S
(R: 22.9 nM, Q: 60.3 nM, T: 131 nM, P: 231 nM, S: 586 nM)

P = Cc1cc(S(N)(=O)=O)ccc1Nc1ncc2c(n1)n(C1CCCC1)c(=O)n2C [Example 2]
Q = COc1cc(C(=O)NC2CCN(C)CC2)ccc1Nc1ncc2c(n1)n(C1CCCC1)c(=O)n2CC#N [Example 37]
Exercise: Form field 'greater IC50' accepts P or Q ; which applies? Record your answer as the label of the chosen record.
Key: Q

1 = COc1cc(N2CCOCC2)ccc1Nc1ncc2c(n1)n(C1CCCC1)c(=O)n2C [Example 6]
2 = CCOc1cc(N2CCCN(C)CC2)ccc1Nc1ncc2c(n1)n(C1CCCC1)c(=O)n2C [Example 21]
3 = CN1CCN(c2ccc(Nc3ncc4c(n3)n(C3CCCC3)c(=O)n4C)c(Cl)c2)CC1 [Example 18]
Exercise: Ordering criterion: IC50; begin with the maximum. Answer by naming the labels in the order asked.
Key: 1, 2, 3
(1: 78 nM, 2: 47.3 nM, 3: 14.8 nM)

* * *

test system: human colon tumour cell line HT29; experiment: Spindle Checkpoint Abrogation Assay (phosphohistone H3 serine 10); assay type: cell-based; conditions: HT-29, HT29 cells, paclitaxol 7.8 nM, compound 5 h, histone H3 serine 10 positive cells, read-out: SCAA: Spindle checkpoint abrogation assay activity
pIC50: −log10 of the molar value.
Reported Property: pIC50

I = Cn1c(=O)n(C2CCCC2)c2nc(Nc3ccc(S(C)(=O)=O)cc3F)ncc21
II = CN1CCN(S(=O)(=O)c2ccc(Nc3ncc4c(n3)n(C3CCCC3)c(=O)n4C)cc2)CC1
Exercise: Would you kindly point out which of I and II has the smaller pIC50 figure? Record your answer as the label of the chosen record.
Key: II
(II: 5.43, I: 5.64)

* * *

Biological target: N-terminal GST tagged full length human TTK kinase (Homo sapiens)
Construct: N-terminal GST tagged full length human TTK kinase; GST (N); made in house; host or cells: insect cells
Sequence (P33981 1-857): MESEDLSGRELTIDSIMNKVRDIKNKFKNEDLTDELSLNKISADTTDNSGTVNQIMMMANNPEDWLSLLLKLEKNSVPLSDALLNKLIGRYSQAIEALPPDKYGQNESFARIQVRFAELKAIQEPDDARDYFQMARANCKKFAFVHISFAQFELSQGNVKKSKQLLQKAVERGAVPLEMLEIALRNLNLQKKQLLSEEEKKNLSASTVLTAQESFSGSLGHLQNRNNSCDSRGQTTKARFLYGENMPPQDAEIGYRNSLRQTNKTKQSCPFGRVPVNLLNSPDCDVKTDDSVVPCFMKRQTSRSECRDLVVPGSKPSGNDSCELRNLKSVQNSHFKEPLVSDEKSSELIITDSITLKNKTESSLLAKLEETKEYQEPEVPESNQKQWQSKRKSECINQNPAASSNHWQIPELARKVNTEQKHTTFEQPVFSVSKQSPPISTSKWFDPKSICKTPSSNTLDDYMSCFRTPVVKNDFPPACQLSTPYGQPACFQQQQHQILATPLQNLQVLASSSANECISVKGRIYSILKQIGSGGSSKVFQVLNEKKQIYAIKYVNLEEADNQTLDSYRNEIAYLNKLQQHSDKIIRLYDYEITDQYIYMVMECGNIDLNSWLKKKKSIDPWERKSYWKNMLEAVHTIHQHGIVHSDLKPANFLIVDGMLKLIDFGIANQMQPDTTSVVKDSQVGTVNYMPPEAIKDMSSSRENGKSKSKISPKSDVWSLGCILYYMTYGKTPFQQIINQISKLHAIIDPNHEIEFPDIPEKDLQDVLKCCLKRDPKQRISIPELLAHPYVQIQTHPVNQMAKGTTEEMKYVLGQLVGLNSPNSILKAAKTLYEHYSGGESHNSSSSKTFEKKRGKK
Test: In Vitro TTK Kinase Assay 2 (Caliper LabChip LC3000)
Assay type: biochemical
Details: recombinant TTK, 12 μM ATP, read-out: EAA2: Enzyme Assay Activity (In Vitro TTK kinase assay 2)
pIC50: −log10 of the molar value.
Reported Property: pIC50

>>> data_value("COc1cc(N2CCN(C)CC2)ccc1Nc1ncc2c(n1)n(C1CCCC1)c(=O)n2CC#N [Example 36]")
7.67
>>> data_value("COc1cc(C(=O)NCCN2CCN(C)CC2)ccc1Nc1ncc2c(n1)n(C1CCCC1)c(=O)n2C [Example 64]")
7.21
>>> data_value("CN1CCC(NC(=O)c2ccc(Nc3ncc4c(n3)n(C3CCCC3)c(=O)n4C)c(Cl)c2)CC1 [Example 15]")
6.63
>>> data_value("CC(C)Oc1ccc(Nc2ncc3c(n2)n(C2CCCC2)c(=O)n3C)cc1 [Example 74]")
7.54
>>> data_value("COc1cc(C(=O)N2CC[C@@H](N(C)C)C2)ccc1Nc1ncc2c(n1)n(C1CCCC1)c(=O)n2C [Example 55]")
7.76

a = COc1cc(N2CCCN(C)CC2)ccc1Nc1ncc2c(n1)n(C1CCCC1)c(=O)n2C [Example 20]
b = COc1cc(C(=O)N2CCCC2)ccc1Nc1ncc2c(n1)n(C1CCCC1)c(=O)n2C [Example 10]
Exercise: Form field 'greater pIC50' accepts a or b ; which applies? Record your answer as the label of the chosen record.
Key: b
(b: 7.71, a: 7.40)

* * *

Target: N-terminal GST tagged full length human TTK kinase (Homo sapiens, UniProt P33981)
Construct: N-terminal GST tagged full length human TTK kinase; GST (N); made in house; host or cells: insect cells
Test: In Vitro TTK Kinase Assay 2 (Caliper LabChip LC3000)
Format: biochemical
Settings: recombinant TTK, 12 μM ATP, read-out: EAA2: Enzyme Assay Activity (In Vitro TTK kinase assay 2)
Description: Each reaction was stopped by the addition of EDTA to a concentration of 40 mM in a solution which also comprised 0.1% coating reagent (Caliper LS), 100 mM HEPES pH 7.5, 0.015% v/v Brij™-35 and 5% DMSO. The stopped enzyme reactions were sipped through capillaries onto a Caliper chip where the peptide substrate and phosphorylated product were separated and detected via laser-induced fluorescence.
pIC50: −log10 of the molar value.
Reported Property: pIC50

// below: answered compounds
>>> data_value("COc1cc(N2CCN(C)CC2)ccc1Nc1ncc2c(n1)n(C(C)C)c(=O)n2C")
6.92
>>> data_value("COc1cc(NS(C)(=O)=O)ccc1Nc1ncc2c(n1)n(C1CCCC1)c(=O)n2C")
7.51
>>> data_value("Cn1c(=O)n(C2CCCC2)c2nc(Nc3ccc(-c4cnco4)cc3)ncc21")
7.74
>>> data_value("COc1cc(C(=O)N(C)CCCN(C)C)ccc1Nc1ncc2c(n1)n(C1CCCC1)c(=O)n2C")
7.44
>>> data_value("CCn1c(=O)n(C2CCCC2)c2nc(Nc3ccc(S(C)(=O)=O)cc3OC)ncc21")
7.61
>>> data_value("CCN1CCCC1CNC(=O)c1ccc(Nc2ncc3c(n2)n(C2CCCC2)c(=O)n3C)c(OC)c1 (centres unmarked)")
6.94
>>> data_value("CCn1c(=O)n(C2CCCC2)c2nc(Nc3ccc(N4CCN(C)CC4)cc3OC)ncc21")
7.27
>>> data_value("CN1CCN(S(=O)(=O)c2ccc(Nc3ncc4c(n3)n(C3CCCC3)c(=O)n4C)cc2)CC1")
6.20

I = COc1cc(C(=O)N2CCN(C3CCN(C)CC3)CC2)ccc1Nc1ncc2c(n1)n(C1CCCC1)c(=O)n2C
II = COc1cc(C(=O)NCCN2CCCCC2)ccc1Nc1ncc2c(n1)n(C1CCCC1)c(=O)n2C
Exercise: Would you kindly point out which of I and II has the smaller pIC50 figure? Record your answer as the label of the chosen record.
Key: I

a = COc1cc(OC2CCN(C)C2)ccc1Nc1ncc2c(n1)n(C1CCCC1)c(=O)n2C (centres unmarked)
b = COc1cc(C(=O)N[C@H]2CCNC2)ccc1Nc1ncc2c(n1)n(C1CCCC1)c(=O)n2C
Exercise: Form field 'greater pIC50' accepts a or b ; which applies? Record your answer as the label of the chosen record.
Key: a
(a: 7.76, b: 7.38)

1 = COCCN1CCN(C(=O)c2ccc(Nc3ncc4c(n3)n(C3CCCC3)c(=O)n4C)c(OC)c2)CC1
2 = COc1cc(C(=O)NC2CC3CCCC(C2)N3C)ccc1Nc1ncc2c(n1)n(C1CCCC1)c(=O)n2C (centres unmarked)
Exercise: Would you kindly point out which of 1 and 2 has the smaller pIC50 figure? Record your answer as the label of the chosen record.
Key: 2
(2: 7.16, 1: 7.45)

1 = COc1cc(CCN2CCN(C)CC2)ccc1Nc1ncc2c(n1)n(C1CCCC1)c(=O)n2C
2 = COc1cc(C(=O)NCCN(C)C)ccc1Nc1ncc2c(n1)n(C1CCCC1)c(=O)n2C
Exercise: Would you kindly point out which of 1 and 2 has the smaller pIC50 figure? Record your answer as the label of the chosen record.
Key: 2

A = COc1cc(C(=O)NC2CCN(C)CC2)ccc1Nc1ncc2c(n1)n(C(C)C)c(=O)n2C
B = CCOc1cc(N2CCN(C)CC2)ccc1Nc1ncc2c(n1)n(C(C)C)c(=O)n2C
C = COc1cc(C2CCN(C)CC2)ccc1Nc1ncc2c(n1)n(C1CCCC1)c(=O)n2C
D = Cn1c(=O)n(C2CCCC2)c2nc(Nc3ccc(-n4cccn4)cc3)ncc21
Exercise: Sort low-to-high on pIC50, please. Answer by naming the labels in the order asked.
Key: A, B, D, C

a = COc1cc(C(=O)NC2CCC(N(C)C)CC2)ccc1Nc1ncc2c(n1)n(C1CCCC1)c(=O)n2C (centres unmarked)
b = CNC(=O)c1ccc(Nc2ncc3c(n2)n(C(C)C)c(=O)n3C)c(OC)c1
c = COc1cc(C(=O)NCCCCN(C)C)ccc1Nc1ncc2c(n1)n(C1CCCC1)c(=O)n2C
d = CCN1CCC(NC(=O)c2cc(F)c(Nc3ncc4c(n3)n(C3CCCC3)c(=O)n4C)cc2F)CC1
Exercise: Sort low-to-high on pIC50, please. Answer by naming the labels in the order asked.
Key: b, d, a, c
(b: 5.15, d: 5.70, a: 6.87, c: 7.27)

A = CCN1CCN(c2ccc(Nc3ncc4c(n3)n(C(C)C)c(=O)n4C)c(OC)c2)CC1
B = COc1cc(C(=O)N2CCC(N3CCCC3)CC2)ccc1Nc1ncc2c(n1)n(C1CCCC1)c(=O)n2C
Exercise: Form field 'greater pIC50' accepts A or B ; which applies? Record your answer as the label of the chosen record.
Key: B
(B: 7.17, A: 6.96)

I = Cn1c(=O)n(C2CCCC2)c2nc(Nc3ccc(S(N)(=O)=O)cc3)ncc21
II = CCn1c(=O)n(C2CCCC2)c2nc(Nc3ccc(S(N)(=O)=O)cc3)ncc21
III = COc1cc(N2CCN(C)CC2)ccc1Nc1ncc2c(n1)n(C1CCNCC1)c(=O)n2C
Exercise: Sort low-to-high on pIC50, please. Answer by naming the labels in the order asked.
Key: III, I, II
(III: 5.27, I: 6.78, II: 7.02)
